Origin of the recorded values: patent US10039283B2

# testDetails: Log P by HPLC on reversed phase, method [a], acidic range (0.1% formic acid)
# Type: physicochemical
# experimentalParameters: LC-UV, 0.1% formic acid in water and acetonitrile
LogP: recorded values

{"columns": ["molecule", "result"],
 "data": [
  ["CCc1c(NC(=O)c2cccnc2C(F)F)cnn1-c1cccc(C(F)(F)F)c1 [Example 117]", "2.69^[a]"],
  ["Cc1c(NC(=O)c2cccnc2C(F)F)cnn1C1CCCC1 [Example 11]", "1.83^[a]"],
  ["Cc1cnc(C(F)F)c(C(=O)Nc2cnn(-c3ccc(C(C)C)cc3)c2C(F)(F)F)c1 [Example 142]", "3.78^[a]"],
  ["O=C(Nc1cnn(-c2ccccc2F)c1-c1ccc(F)cc1)c1cccnc1C(F)F [Example 147]", "2.51^[a]"],
  ["O=C(Nc1cnn(-c2ccccc2Cl)c1Br)c1cccnc1C(F)F [Example 217]", "2.18^[a]"],
  ["O=C(Nc1cnn(-c2ccccc2C(F)(F)F)c1C(F)(F)F)c1cccnc1C(F)F [Example 49]", "2.82^[a]"],
  ["O=C(Nc1cnn(-c2cc(Cl)ccc2Cl)c1C(F)(F)F)c1ccc(Br)nc1C(F)F [Example 178]", "3.85^[a]"],
  ["CC(C)CCn1ncc(NC(=O)c2cccnc2C(F)F)c1C(C)C [Example 125]", "2.53^[a]"],
  ["O=C(Nc1cnn(-c2ccc(Br)cc2)c1C(F)(F)F)c1cccnc1C(F)F [Example 63]", "3.13^[a]"],
  ["Cc1cnc(C(F)F)c(C(=O)Nc2cnn(-c3ccccc3C)c2C(C)C)c1 [Example 205]", "2.60^[a]"]
]}

Ask: Field request: LogP | item: Cc1cccc(-n2ncc(NC(=O)c3cc(C)cnc3C(F)F)c2C(C)C)c1 [Example 238]
Reply: 2.75^[a]

Ask: Subsequent entry: O=C(Nc1cnn(-c2c(F)cccc2F)c1C(F)(F)F)c1cccnc1C(F)(F)F [Example 19]
Reply: 2.79^[a];

Ask: # repeat for O=C(Nc1cnn(-c2ccc(F)cc2)c1-c1cccc(Cl)c1)c1cccnc1C(F)F [Example 128]
Reply: 2.92^[a]

Ask: Try this molecule too: O=C(Nc1cnn(-c2ccc(Br)cc2)c1OCC(F)F)c1cccnc1C(F)F [Example 235]
Reply: 2.68^[a]

Ask: Queued: CC(C)c1c(NC(=O)c2cccnc2C(F)F)cnn1-c1ccccc1Cl [Example 109]
Reply: 2.35^[a]

Ask: Also O=C(Nc1cnn(-c2ccccc2C(F)(F)F)c1-c1ccc(F)cc1)c1cccnc1C(F)F [Example 130] ?
Reply: 2.80^[a]

Ask: Next: COc1cnc(C(F)F)c(C(=O)Nc2cnn(-c3ccc(Cl)cc3Cl)c2C(F)(F)F)c1 [Example 168]
Reply: 3.53^[a]

Ask: Next entry: O=C(Nc1cnn(-c2cccc(Cl)c2)c1Br)c1cccnc1C(F)F [Example 153]
Reply: 2.54^[a]

Ask: Consider next the molecule Cc1ccc(-n2ncc(NC(=O)c3ccc(Cl)nc3C(F)F)c2C(F)(F)F)cc1 [Example 157] in the same way.
Reply: 3.48^[a]

Ask: Check Cc1c(NC(=O)c2cccnc2C(F)F)cnn1-c1cccc(C(F)(F)F)c1 [Example 113] too.
Reply: 2.48^[a]

Ask: Could you do the same for O=C(Nc1cnn(-c2cc(Cl)cc(Cl)c2)c1C(F)(F)F)c1ccc(Cl)nc1C(F)F [Example 161] , please?
Reply: 4.23^[a]

Ask: Repeat with O=C(Nc1cnn(-c2ccc(C(F)(F)F)cc2)c1-c1cccc(F)c1)c1cccnc1C(F)F [Example 185]
Reply: 3.31^[a]

Ask: Please answer likewise for O=C(Nc1cnn(-c2ccc(OC3CCCCC3)cc2)c1C(F)(F)F)c1cccnc1C(F)F [Example 254]
Reply: 4.11^[a]

Ask: Next molecule up: Cc1cnc(C(F)F)c(C(=O)Nc2cnn(-c3ccc(Cl)cc3)c2C(C)C)c1 [Example 211]
Reply: 2.86^[a]
